Values compiled from patent US8546378B2.

# target.of.assay: human 5-HT2C receptor (Homo sapiens)
# Construct: expressed in transfected cells; host or cells: HEK293
# Sequence (P28335 33-458): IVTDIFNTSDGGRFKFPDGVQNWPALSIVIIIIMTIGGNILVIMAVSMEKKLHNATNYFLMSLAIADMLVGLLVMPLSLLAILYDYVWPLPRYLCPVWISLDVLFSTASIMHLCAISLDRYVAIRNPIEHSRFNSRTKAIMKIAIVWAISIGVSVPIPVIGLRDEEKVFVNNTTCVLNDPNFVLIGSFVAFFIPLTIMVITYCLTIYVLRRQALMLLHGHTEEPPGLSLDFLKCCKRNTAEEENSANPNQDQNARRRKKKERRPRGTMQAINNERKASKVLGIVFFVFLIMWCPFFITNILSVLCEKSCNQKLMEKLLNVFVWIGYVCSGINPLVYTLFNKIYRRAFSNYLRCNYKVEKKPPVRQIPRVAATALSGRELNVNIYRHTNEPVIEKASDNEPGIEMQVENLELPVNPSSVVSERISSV
# assay.remarks: Intracellular IP3 Accumulation Assay
# Assay type: cell-based
# experimental.parameters: HEK293 cells transfected with human 5-HT2C receptor; averages of at least two trials; read-out: 5-HT2C (EC50) IP Accumulation Assay
Each entry below lists one item and its recorded EC50 value.

{"molecule": "CC1CNCCc2cc(O)c(Br)cc21 (racemic) [Example 4]", "EC50 / nM": 2.1}
{"molecule": "COc1cc2c(cc1Br)C(C)CNCC2 (racemic) [Example 1]", "EC50 / nM": 4.2}
{"molecule": "C=CCOc1cc2c(cc1I)C(C)CNCC2 (racemic) [Example 12]", "EC50 / nM": 6.3}
{"molecule": "COc1cc2c(cc1I)C(C)CNCC2 (racemic) [Example 3]", "EC50 / nM": 1.4}
{"molecule": "CCC1CNCCc2cc(OC)c(Br)cc21 (racemic) [Example 19]", "EC50 / nM": 18}
{"molecule": "C=CCOc1cc2c(cc1Br)C(C)CNCC2 (racemic) [Example 5]", "EC50 / nM": 12.1}
{"molecule": "CC1CNCCc2ccc(Br)cc21 (racemic) [Example 32]", "EC50 / nM": 2.1}
{"molecule": "COc1cc2c(cc1Cl)C(C)CNCC2 (racemic) [Example 2]", "EC50 / nM": 4.5}
